# Test system: Phakopsora pachyrhizi
# assay-overview: Example B5: preventative activity against Phakopsora pachyrhizi (soybean rust), whole soybean plants sprayed, leaf disks inoculated
# Format: in vivo
# test-settings: applied alone, 2.25 g/ha
measurement-label: Observed Activity (% of untreated) against Phakopsora pachyrhizi (%)

>  <molecule>
Cc1cccc(-n2nnn(C)c2=O)c1COc1ccn(-c2ccc(Cl)cc2)n1 [metyltetraprole, reference compound]

>  <target-system>
Phakopsora pachyrhizi

>  <observed-value>
1

$$$$
>  <molecule>
Cn1cc(C(=O)Nc2cccc3c2[C@@H]2CC[C@H]3C2=C(Cl)Cl)c(C(F)F)n1 (racemic) [benzovindiflupyr, reference compound]

>  <target-system>
Phakopsora pachyrhizi

>  <observed-value>
34

$$$$
>  <molecule>
CC(C)c1ccc(Cl)cc1CN(C(=O)c1c(C(F)F)nn(C)c1F)C1CC1

>  <target-system>
Phakopsora pachyrhizi

>  <observed-value>
2

$$$$
>  <molecule>
CO/C=C(/C(=O)OC)c1ccccc1Oc1cc(Oc2ccccc2C#N)ncn1 [azoxystrobin, reference compound]

>  <target-system>
Phakopsora pachyrhizi

>  <observed-value>
0

$$$$
>  <molecule>
Cn1cc(C(=O)Nc2ccccc2-c2cc(F)c(F)c(F)c2)c(C(F)F)n1 [fluxapyroxad, reference compound]

>  <target-system>
Phakopsora pachyrhizi

>  <observed-value>
8

$$$$

* * *

Documented inhibition at 0.00625 ppm across a set of compounds
# Tested on: Mycosphaerella arachidis syn. Cercospora arachidicola
# assay-overview: Example B4: mixtures, preventative activity against Mycosphaerella arachidis syn. Cercospora arachidicola (brown leaf spot of peanut), liquid culture
# Type: cell-based
# test-settings: Mycosphaerella arachidis, component A alone, 0.00625 ppm

>  <compound>
CO/C=C(\Oc1cc(-n2ncc(C(F)(F)F)n2)ccc1C)C(=O)OC [X.10]

>  <value-unit>
%

>  <inhibition at 0.00625 ppm>
90

$$$$
>  <compound>
CO/C=C(\Oc1cc(-n2ccc(C(C)C)n2)ccc1C)C(=O)OC [X.06]

>  <value-unit>
%

>  <inhibition at 0.00625 ppm>
50

$$$$
>  <compound>
CO/C=C(\Oc1cc(-n2ccc(C(F)(F)F)n2)ccc1C)C(=O)OC [X.08]

>  <value-unit>
%

>  <inhibition at 0.00625 ppm>
0

$$$$
>  <compound>
CCCc1ccn(-c2ccc(C)c(O/C(=C\OC)C(=O)OC)c2)n1 [X.01]

>  <value-unit>
%

>  <inhibition at 0.00625 ppm>
20

$$$$

* * *

>  <compound>
CO/C=C(\Oc1cc(-n2ccc(C(F)(F)F)n2)ccc1C)C(=O)OC [X.08]

>  <melting point>
154 to 156 °C

$$$$
>  <compound>
CO/C=C(\Oc1cc(-n2ccc(CC(C)C)n2)ccc1C)C(=O)OC [X.05]

>  <melting point>
76 to 80 °C

$$$$
>  <compound>
CO/C=C(\Oc1cc(-n2ncc(C(F)(F)F)n2)ccc1C)C(=O)OC [X.10]

>  <melting point>
107 to 109 °C

$$$$
>  <compound>
CO/C=C(\Oc1cc(-n2ccc(C3CCC3)n2)ccc1C)C(=O)OC [X.04]

>  <melting point>
91 to 94 °C

$$$$

* * *

In this section we review reported melting point values for a set of compounds.

>  <compound>
CCCc1ccn(-c2ccc(C)c(O/C(=C\OC)C(=O)OC)c2)n1

>  <melting point>
91 to 94 °C

$$$$
>  <compound>
CO/C=C(\Oc1cc(-n2ccc(C(C)C)n2)ccc1C)C(=O)OC

>  <melting point>
88 to 91 °C

$$$$
>  <compound>
CCC(C)c1ccn(-c2ccc(C)c(O/C(=C\OC)C(=O)OC)c2)n1 (centres unmarked)

>  <melting point>
110 to 113 °C

$$$$
>  <compound>
CO/C=C(\Oc1cc(-n2ccc(C3CC3)n2)ccc1C)C(=O)OC

>  <melting point>
115 to 118 °C

$$$$
>  <compound>
CO/C=C(\Oc1cc(-n2ccc(OC(C)C)n2)ccc1C)C(=O)OC

>  <melting point>
94 to 97 °C

$$$$

* * *

The molecules listed here are annotated with their Activity (%) B.
# Test system: Glomerella lagenarium syn. Colletotrichum lagenarium
# assay-overview: Example B1: mixtures, preventative activity against Glomerella lagenarium syn. Colletotrichum lagenarium, liquid culture
# Format: cell-based
# test-settings: component B alone, 0.1 ppm

>  <molecule>
[Cl-].[Cu+2].[Cu+2].[OH-].[OH-].[OH-] [copper oxychloride, reference compound]

>  <Activity (%) B>
0

$$$$
>  <molecule>
Cc1ccc(C(=O)OCc2ccc(Oc3ccccc3)cc2)c(N)n1

>  <Activity (%) B>
20

$$$$
>  <molecule>
CON(C(=O)c1cn(C)nc1C(F)F)C(C)Cc1c(Cl)cc(Cl)cc1Cl (stereo not drawn) [pydiflumetofen, reference compound]

>  <Activity (%) B>
0

$$$$
>  <molecule>
CO/C=C(/C(=O)OC)c1ccccc1COc1cccc(C(F)(F)F)n1

>  <Activity (%) B>
90

$$$$
>  <molecule>
OC(Cc1ccccc1Cl)(Cn1nc[nH]c1=S)C1(Cl)CC1 (stereo not drawn) [proth ioconazole, prothioconazole, reference compound]

>  <Activity (%) B>
20

$$$$
>  <molecule>
Cn1cc(C(=O)Nc2cccc3c2[C@@H]2CC[C@H]3C2=C(Cl)Cl)c(C(F)F)n1 (racemic) [benzovindiflupyr, reference compound]

>  <Activity (%) B>
50

$$$$
>  <molecule>
Cn1cc(C(=O)Nc2ccccc2-c2cc(F)c(F)c(F)c2)c(C(F)F)n1 [fluxapyroxad, reference compound]

>  <Activity (%) B>
0

$$$$
>  <molecule>
Cc1nc2c(F)c(F)ccc2cc1Oc1cccc(F)c1C(C)(C)O

>  <Activity (%) B>
20

$$$$
>  <molecule>
Cc1cccc(-n2nnn(C)c2=O)c1COc1ccn(-c2ccc(Cl)cc2)n1 [metyltetraprole, reference compound]

>  <Activity (%) B>
90

$$$$

* * *

In this section we review reported inhibition at 0.3 ppm values for a set of compounds.
# System: Septoria glycines
# assay-overview: Example B2: mixtures, preventative activity against Septoria glycines (brown spot), liquid culture
# Format: cell-based
# test-settings: Septoria glycines, component B alone, 0.3 ppm; 100-0 scale

>  <compound>
CC(C1CC1)C(O)(Cn1cncn1)c1ccc(Cl)cc1 (stereo not shown) [cyproconazole, reference compound]

>  <value-unit>
%

>  <inhibition at 0.3 ppm>
70

$$$$
>  <compound>
CON=C(C(=O)OC)c1ccccc1CON=C(C)c1cccc(C(F)(F)F)c1 [trifloxystrobin, reference compound]

>  <value-unit>
%

>  <inhibition at 0.3 ppm>
100

$$$$
>  <compound>
CC(Cc1ccc(C(C)(C)C)cc1)CN1C[C@@H](C)O[C@@H](C)C1 (stereo partly shown) [fenpropimorph]

>  <value-unit>
%

>  <inhibition at 0.3 ppm>
50

$$$$
>  <compound>
OC(Cc1ccccc1Cl)(Cn1nc[nH]c1=S)C1(Cl)CC1 (stereo not shown) [proth ioconazole, prothioconazole, reference compound]

>  <value-unit>
%

>  <inhibition at 0.3 ppm>
90

$$$$

* * *

# Tested on: Septoria tritici
# assay-overview: Example B3: mixtures, preventative activity against Septoria tritici (leaf blotch), liquid culture
# Format: cell-based
# test-settings: component B alone, 0.3 ppm; 100-0 scale
This section presents compounds with their documented Activity (%) B values.
measurement-label: Activity (%) B

>  <compound>
Cn1cc(C(=O)Nc2cccc3c2[C@@H]2CC[C@H]3C2=C(Cl)Cl)c(C(F)F)n1 (racemic) [benzovindiflupyr, reference compound]

>  <observed-value>
70

$$$$
>  <compound>
CC(C)C1C2CCC1c1c(NC(=O)c3cn(C)nc3C(F)F)cccc12 (stereo not shown) [isopyrazam]

>  <observed-value>
70

$$$$
>  <compound>
Cc1nc2c(F)c(F)ccc2cc1Oc1cccc(F)c1C(C)(C)O [ipflufenoquin]

>  <observed-value>
20

$$$$
>  <compound>
CC1(C)N=C(c2cnc3ccccc3c2)c2ccccc2C1(F)F [quinofumelin]

>  <observed-value>
0

$$$$

* * *

# Test system: Phakopsora pachyrhizi
# assay-overview: Example B5: preventative activity against Phakopsora pachyrhizi (soybean rust), whole soybean plants sprayed, leaf disks inoculated
# Type: in vivo
# test-settings: Phakopsora pachyrhizi, foliar, applied alone, 9 g/ha; read-out: Observed Activity (% of untreated) against Phakopsora pachyrhizi
Examples of compounds with documented inhibition at 9 g/ha follow.

>  <compound>
CO/C=C(\Oc1cc(-n2ccc(C(C)C)n2)ccc1C)C(=O)OC

>  <value-unit>
%

>  <inhibition at 9 g/ha>
97

$$$$
>  <compound>
CCCc1ccn(-c2ccc(C)c(O/C(=C\OC)C(=O)OC)c2)n1

>  <value-unit>
%

>  <inhibition at 9 g/ha>
85

$$$$
>  <compound>
CCCc1cnn(-c2ccc(C)c(O/C(=C\OC)C(=O)OC)c2)n1

>  <value-unit>
%

>  <inhibition at 9 g/ha>
97

$$$$
>  <compound>
CON=C(C(=O)OC)c1ccccc1CON=C(C)c1cccc(C(F)(F)F)c1 [trifloxystrobin, reference compound]

>  <value-unit>
%

>  <inhibition at 9 g/ha>
0

$$$$
